Numbers sourced from paper PMC4364388.

- System: rat UT-A1 (Rattus norvegicus)
- Sequence (Q62668 whole entry): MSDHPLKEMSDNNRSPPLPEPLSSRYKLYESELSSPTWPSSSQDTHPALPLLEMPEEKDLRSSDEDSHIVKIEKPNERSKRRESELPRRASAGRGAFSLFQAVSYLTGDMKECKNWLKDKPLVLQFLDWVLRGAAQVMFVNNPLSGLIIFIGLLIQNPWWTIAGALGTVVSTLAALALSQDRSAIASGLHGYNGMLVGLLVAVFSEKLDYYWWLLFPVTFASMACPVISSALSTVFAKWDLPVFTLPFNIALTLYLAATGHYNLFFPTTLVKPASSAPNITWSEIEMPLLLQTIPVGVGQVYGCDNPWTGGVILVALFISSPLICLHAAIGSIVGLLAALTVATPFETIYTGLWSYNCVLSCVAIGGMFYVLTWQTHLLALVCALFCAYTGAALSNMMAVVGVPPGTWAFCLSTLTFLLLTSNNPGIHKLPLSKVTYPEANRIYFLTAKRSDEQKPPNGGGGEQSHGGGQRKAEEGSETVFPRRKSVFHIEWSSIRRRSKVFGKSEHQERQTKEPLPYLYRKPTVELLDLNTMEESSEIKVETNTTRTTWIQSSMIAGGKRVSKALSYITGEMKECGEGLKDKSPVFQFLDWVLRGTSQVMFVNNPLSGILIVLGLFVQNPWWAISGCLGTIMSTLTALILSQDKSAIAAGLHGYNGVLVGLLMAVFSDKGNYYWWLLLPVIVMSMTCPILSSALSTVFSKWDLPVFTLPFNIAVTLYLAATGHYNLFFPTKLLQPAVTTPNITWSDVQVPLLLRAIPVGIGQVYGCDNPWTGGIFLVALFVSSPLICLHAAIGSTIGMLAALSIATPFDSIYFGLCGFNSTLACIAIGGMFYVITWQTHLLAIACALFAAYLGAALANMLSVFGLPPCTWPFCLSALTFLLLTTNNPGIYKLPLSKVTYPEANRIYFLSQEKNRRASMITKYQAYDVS
- Experimental Protocol: UT-A1 inhibition assay
- Format: cell-based
- Assay Setup: UT-A1 IC50, MDCK cells expressing rat UT-A1, YFP and AQP1; 20 min incubation
Measured Endpoint: pIC50
// pIC50 here means minus log10 of the molar concentration (mol/L)

NC(=S)Nc1ccccc1 [Compound 9, phenylthiourea]: 2.06
NC(=S)Nc1ccc([N+](=O)[O-])cc1 [Compound 18, 4-nitrophenylthiourea]: 2.89

Switching to the query record.
Looking up NC(=S)Nc1ccc(Cl)c(Cl)c1 [Compound 21, 3,4-dichlorophenylthiourea] , I found its pIC50 recorded as 2.82

----------
- System: rat UT-B (Rattus norvegicus, UniProt P97689)
- Sequence (P97689 whole entry): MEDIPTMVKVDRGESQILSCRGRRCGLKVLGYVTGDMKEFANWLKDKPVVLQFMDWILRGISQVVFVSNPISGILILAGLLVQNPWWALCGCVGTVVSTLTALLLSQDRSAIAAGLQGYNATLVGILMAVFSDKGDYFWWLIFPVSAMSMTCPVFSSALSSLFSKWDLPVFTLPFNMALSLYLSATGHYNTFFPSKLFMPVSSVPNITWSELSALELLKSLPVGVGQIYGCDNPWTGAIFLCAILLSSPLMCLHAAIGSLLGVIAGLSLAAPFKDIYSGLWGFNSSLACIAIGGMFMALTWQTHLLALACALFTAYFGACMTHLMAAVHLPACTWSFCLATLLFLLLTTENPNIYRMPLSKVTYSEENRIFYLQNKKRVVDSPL
- Experimental Protocol: UT-B inhibition, erythrocyte lysis assay
- Type: cell-based
- Assay Setup: UT-B IC50, rat erythrocyte lysis assay; 15 min incubation
IC50 overview

Please review the entries below; each comes with its answer.
NC(=S)Nc1ccc(Cl)c(Cl)c1: 0.4 mM
NC(=S)c1cccnc1 [Compound 27, thionicotinamide]: 10 mM
NC(=S)Nc1ccccc1: 14 mM
NC(=S)Nc1ccc([N+](=O)[O-])cc1: 10 mM

Note: attention shifts to another entry.
Please fill in: IC50 reported for CN(C)C(=S)N(C)C = > 25 mM
